EXPERIMENT_NOTES: physchem
EXPERIMENTAL_CONDITIONS: 37 °C, organic solvent or mixture, thermodynamic from solid, Acetone, x ± s, n = 3
MEASURED_ENDPOINT: solubility at 24 h (mg/mL)
Express your answer in mg/mL, writing the number without its unit.

Q. What value of measured solubility at 24 h is listed for `C[C@H]1CCC/C=C/[C@@H]2C[C@H](OC(=O)/C=C/c3ccccc3)C[C@H]2[C@H](O)/C=C/C(=O)O1` ?
A. 9.46

----------
EXPERIMENT_NOTES: physchem
EXPERIMENTAL_CONDITIONS: 37 °C, organic solvent or mixture, thermodynamic from solid, Methanol, x ± s, n = 3
MEASURED_ENDPOINT: solubility at 24 h (µg/mL)
Express your answer in µg/mL, writing the number without its unit.

Q. What value of measured solubility at 24 h is listed for C[C@H]1CCC/C=C/[C@@H]2C[C@H](OC(=O)/C=C/c3ccccc3)C[C@H]2[C@H](O)/C=C/C(=O)O1 [Compound A] ?
A. 9480
